TARGET_SYSTEM: human SOS1 (loading of human K-Ras^G12C-GDP with fluorescent GTP-analog) (Homo sapiens, UniProt Q07889)
TEST_SUMMARY: Biochemical assay 3: K-Ras^G12C activation assay by hSOS1 (HTRF)
ASSAY_CONDITIONS: no GTP; read-out: Assay 3 (KRAS-Activation by SOS no GTP) activity expressed as IC50
MEASURED_METRIC: log10 IC50 (log10 of the value in nM)

>  <COMPOUND>
COc1cc2nc(C)nc(NC(C)c3cccs3)c2cc1OC (centres unmarked)

>  <REPORTED_VALUE>
4.09

$$$$
>  <COMPOUND>
COc1cc2nc(C)nc(NC(C)c3ccc4c(c3)CCO4)c2cc1OC (centres unmarked)

>  <REPORTED_VALUE>
3.39

$$$$
>  <COMPOUND>
COc1cc2nc(C)nc(N[C@H](C)c3cccc(-c4ccc5c(c4)OCO5)c3)c2cc1OC

>  <REPORTED_VALUE>
3.14

$$$$
>  <COMPOUND>
COc1cc2nc(C)nc(N[C@H](C)c3cccc(/C=C/c4ccccc4)c3)c2cc1OC

>  <REPORTED_VALUE>
3.96

$$$$
>  <COMPOUND>
COc1cc2nc(C)nc(N[C@H](C)c3cccc(-c4ccc(C(C)(C)C#N)cc4)c3)c2cc1OC

>  <REPORTED_VALUE>
3.96

$$$$
>  <COMPOUND>
COc1cc2nc(C)nc(N[C@H](C)c3cccc(CN)c3)c2cc1OC

>  <REPORTED_VALUE>
3.75

$$$$
>  <COMPOUND>
CCOc1cc2c(N[C@H](C)c3cccc(-c4cn[nH]c4)c3)nc(C)nc2cc1OC

>  <REPORTED_VALUE>
2.85

$$$$
>  <COMPOUND>
COc1cc2nc(C)nc(NC(C)c3ccc(-c4ccccc4CNCC(=O)N4CCc5ccccc5C4)s3)c2cc1OC (centres unmarked)

>  <REPORTED_VALUE>
2.94

$$$$
>  <COMPOUND>
COc1cc2nc(C)nc(NC(C)c3ccc(-c4ccc(C(N)=O)cc4)s3)c2cc1OC (centres unmarked)

>  <REPORTED_VALUE>
3.48

$$$$
>  <COMPOUND>
COc1cc2nc(C)nc(N[C@H](C)c3cccc(-c4cccc(NS(C)(=O)=O)c4)c3)c2cc1OC

>  <REPORTED_VALUE>
2.89

$$$$
>  <COMPOUND>
COc1cc2nc(C)nc(NC(C)c3ccc(-c4ccccc4CN(C)CC(F)F)s3)c2cc1OC (centres unmarked)

>  <REPORTED_VALUE>
3.35

$$$$
>  <COMPOUND>
CCCOc1ccc(Cl)cc1-c1cccc([C@@H](C)Nc2nc(C)nc3cc(OC)c(OC)cc23)c1

>  <REPORTED_VALUE>
4.30

$$$$
>  <COMPOUND>
C/C=C/c1cccc([C@@H](C)Nc2nc(C)nc3cc(OC)c(OC)cc23)c1

>  <REPORTED_VALUE>
3.24

$$$$
>  <COMPOUND>
COc1cc2nc(C)nc(NC(C)c3ccc(-c4ccccc4OCCN4CCCC4)s3)c2cc1OC (centres unmarked)

>  <REPORTED_VALUE>
2.64

$$$$
>  <COMPOUND>
COc1cc2nc(C)nc(NC(C)c3ccc(-c4ccccc4CN4CCC(F)(F)C4)s3)c2cc1OC (centres unmarked)

>  <REPORTED_VALUE>
3.86

$$$$
>  <COMPOUND>
COc1cc2nc(C)nc(N[C@@H](C)c3ccc(-c4ccccc4S(C)(=O)=O)s3)c2cc1OC (racemic)

>  <REPORTED_VALUE>
3.49

$$$$
>  <COMPOUND>
COc1cc2nc(C)nc(NC(C)c3cccc(OC)c3OC)c2cc1OC (centres unmarked)

>  <REPORTED_VALUE>
4.05

$$$$
>  <COMPOUND>
COc1cc2nc(C)nc(NC(C)c3ccc(-c4ccccc4C(N)=O)s3)c2cc1OC (centres unmarked)

>  <REPORTED_VALUE>
3.88

$$$$
>  <COMPOUND>
COc1cc2nc(C)nc(NC(C)c3ccc4c(c3)NC(=O)CO4)c2cc1OC (centres unmarked)

>  <REPORTED_VALUE>
4.23

$$$$
>  <COMPOUND>
COc1cc2nc(C)nc(NC(C)c3ccc(-c4cc[nH]n4)s3)c2cc1OC (centres unmarked)

>  <REPORTED_VALUE>
4.13

$$$$
>  <COMPOUND>
CCN(CC)Cc1ccccc1-c1ccc(C(C)Nc2nc(C)nc3cc(OC)c(OC)cc23)s1 (centres unmarked)

>  <REPORTED_VALUE>
2.39

$$$$
>  <COMPOUND>
COc1cc2nc(C)nc(N[C@@H](C)c3ccc(-c4cc(N)ccc4C)s3)c2cc1OC (racemic)

>  <REPORTED_VALUE>
3.17

$$$$
>  <COMPOUND>
COc1cc2nc(C)nc(N[C@@H](C)c3ccc(-c4cc5ccccc5n4C)s3)c2cc1OC (racemic)

>  <REPORTED_VALUE>
3.21

$$$$
>  <COMPOUND>
CCCNC(=O)c1ccc(-c2ccc([C@H](C)Nc3nc(C)nc4cc(OC)c(OC)cc34)s2)cc1 (racemic)

>  <REPORTED_VALUE>
4.05

$$$$
>  <COMPOUND>
COc1cc2nc(C)nc(N[C@H](C)c3cccc(-c4cccc(S(N)(=O)=O)c4)c3)c2cc1OC

>  <REPORTED_VALUE>
2.95

$$$$
>  <COMPOUND>
COc1cc2nc(C)nc(NC(C)c3ccc(-c4ccccc4CN4CCOCC4)s3)c2cc1OC (centres unmarked)

>  <REPORTED_VALUE>
2.80

$$$$
>  <COMPOUND>
COc1cc2nc(C)nc(NC(C)c3cc(C)c(Br)s3)c2cc1OC (centres unmarked)

>  <REPORTED_VALUE>
3.96

$$$$
>  <COMPOUND>
COc1cc2nc(C)nc(N[C@H](C)c3cccc(-c4cncnc4)c3)c2cc1OC

>  <REPORTED_VALUE>
3.43

$$$$
>  <COMPOUND>
COc1cc2nc(C)nc(N[C@H](C)c3cccc(-c4ccc5c(c4)CCO5)c3)c2cc1OC

>  <REPORTED_VALUE>
3.32

$$$$
>  <COMPOUND>
COc1cc2nc(C)nc(NC(C)c3ccc(-c4ccccc4-c4cn[nH]c4)s3)c2cc1OC (centres unmarked)

>  <REPORTED_VALUE>
3.93

$$$$
>  <COMPOUND>
COc1cc2nc(C)nc(N[C@H](C)c3cccc(/C=C/C4CC4)c3)c2cc1OC

>  <REPORTED_VALUE>
3.27

$$$$
>  <COMPOUND>
COc1cc2nc(C)nc(NC(C)c3ccc(-c4ccccc4CN4CC(F)(F)C4)s3)c2cc1OC (centres unmarked)

>  <REPORTED_VALUE>
3.54

$$$$
